test.target: UniProt:P29476
test.name: Irreversible inhibition kinetics
Format: biochemical
quantity: Ki (nM)
Field format: number, assumed nM, no unit text.

Request: Which Ki is reported for this compound? N=C(CS)NCCC[C@H](N)C(=O)O
Result: 2900

----------
test.target: ferrous nNOS (Rattus norvegicus)
Sequence (P29476 whole entry): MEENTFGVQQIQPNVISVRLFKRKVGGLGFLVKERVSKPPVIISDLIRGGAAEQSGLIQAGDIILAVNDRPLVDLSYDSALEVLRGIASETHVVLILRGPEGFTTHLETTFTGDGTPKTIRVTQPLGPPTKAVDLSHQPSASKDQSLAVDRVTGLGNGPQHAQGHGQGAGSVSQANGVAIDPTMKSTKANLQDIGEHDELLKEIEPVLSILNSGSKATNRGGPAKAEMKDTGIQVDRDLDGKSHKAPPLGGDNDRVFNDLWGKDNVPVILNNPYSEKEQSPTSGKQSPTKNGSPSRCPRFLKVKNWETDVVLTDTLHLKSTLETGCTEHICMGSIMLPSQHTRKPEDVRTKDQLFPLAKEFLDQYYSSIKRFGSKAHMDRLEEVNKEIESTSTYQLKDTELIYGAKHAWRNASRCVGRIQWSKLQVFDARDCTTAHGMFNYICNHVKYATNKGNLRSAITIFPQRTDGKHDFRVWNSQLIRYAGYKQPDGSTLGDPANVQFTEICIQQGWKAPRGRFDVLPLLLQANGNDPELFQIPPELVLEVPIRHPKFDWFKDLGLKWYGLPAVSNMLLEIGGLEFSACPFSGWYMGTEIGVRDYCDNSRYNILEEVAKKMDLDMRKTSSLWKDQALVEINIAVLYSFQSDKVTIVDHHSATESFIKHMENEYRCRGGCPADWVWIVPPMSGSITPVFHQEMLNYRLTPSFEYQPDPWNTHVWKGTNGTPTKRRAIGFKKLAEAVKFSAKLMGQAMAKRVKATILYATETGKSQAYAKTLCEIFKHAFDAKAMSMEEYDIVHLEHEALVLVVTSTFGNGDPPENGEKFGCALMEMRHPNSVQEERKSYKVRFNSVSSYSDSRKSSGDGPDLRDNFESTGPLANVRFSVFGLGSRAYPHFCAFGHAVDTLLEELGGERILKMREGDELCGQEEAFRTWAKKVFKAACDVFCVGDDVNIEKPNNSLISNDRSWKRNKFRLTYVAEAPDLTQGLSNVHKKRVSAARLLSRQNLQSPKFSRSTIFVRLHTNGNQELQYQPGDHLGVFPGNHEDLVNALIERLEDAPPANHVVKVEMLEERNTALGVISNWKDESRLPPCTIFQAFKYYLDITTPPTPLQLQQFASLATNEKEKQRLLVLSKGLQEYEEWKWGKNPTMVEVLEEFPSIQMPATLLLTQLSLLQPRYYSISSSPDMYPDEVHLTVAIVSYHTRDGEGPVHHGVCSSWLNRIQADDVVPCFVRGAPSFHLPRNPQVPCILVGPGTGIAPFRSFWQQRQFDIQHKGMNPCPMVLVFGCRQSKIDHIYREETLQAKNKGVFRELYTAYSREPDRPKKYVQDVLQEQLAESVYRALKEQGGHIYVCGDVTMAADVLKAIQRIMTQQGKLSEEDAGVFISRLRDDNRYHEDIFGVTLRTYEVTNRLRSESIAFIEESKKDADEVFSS
quantity: Kd
Please answer using a numeric value trailed by its unit.

Request: Kd, test system ferrous nNOS (Rattus norvegicus), entry N=C(CS)NCCC[C@H](N)C(=O)O [compound 6]
Result: 1600 nM

----------
test.target: ferric nNOS (Rattus norvegicus)
quantity: pKd
Note on units: pKd is unitless, being -log10 of a concentration expressed in mol/L.

Request: pKd, test system ferric nNOS (Rattus norvegicus), entry N=C(CS)NCCC[C@H](N)C(=O)O [compound 6]
Result: 5.74

----------
As an illustration, consider measured pIC50 for molecules on rat nNOS (Rattus norvegicus).
Note on units: pIC50 is unitless, being -log10 of a concentration expressed in mol/L.

# molecule, measured.value
data = [
    ("N=C(C=O)NCCC[C@H](N)C(=O)O [compound 4]", 3.70),
    ("C[S+]([O-])CC(=N)NCCC[C@H](N)C(=O)O (some centres unmarked) [compound 2]", 3.34),
    ("N=C(CS)NCCC[C@H](N)C(=O)O [compound 6]", 5.44),
    ("N=C(CO)NCCC[C@H](N)C(=O)O [compound 5]", 4.89),
]

Here's the next entry for you.
Request: pIC50, test system rat nNOS (Rattus norvegicus), entry CS(=O)(=O)CC(=N)NCCC[C@H](N)C(=O)O [compound 3]
Result: 3.29

----------
test.target: rat nNOS (Rattus norvegicus)
test.name: Hemoglobin NO generation assay
Type: biochemical
Catalogue of log10(Ki) readings, one per entry.
Scale type: logarithmic (base 10). Underlying Ki unit: µM.

# compound, test.target, quantity, measured.value
measured = [
    ("C[S+]([O-])CC(=N)NCCC[C@H](N)C(=O)O (some centres unmarked)", "rat nNOS (Rattus norvegicus)", "log10(Ki)", 1.72),
    ("N=C(CS)NCCC[C@H](N)C(=O)O", "rat nNOS (Rattus norvegicus)", "log10(Ki)", -0.38),
]

Request: Which log10(Ki) is reported for this compound? N=C(CO)NCCC[C@H](N)C(=O)O
Result: 0.18

Request: Which log10(Ki) is reported for this compound? CS(=O)(=O)CC(=N)NCCC[C@H](N)C(=O)O
Result: 1.77

Request: Which log10(Ki) is reported for this compound? N=C(C=O)NCCC[C@H](N)C(=O)O
Result: 1.36
